Exercise: state measured viability at 48 h, 10 µM for each of the compounds provided.
# protocolDetails: in vitro
# Design: species or system HB2, CCD841
# assayContext: human, hek293 cells
One number for each entry, in %.

Record excerpt, results attached:
{"compound": "O=C(CCl)N1CCCC(c2nc3ccccc3s2)C1 (stereo not drawn)", "recordedMetric": "viability at 48 h, 10 µM", "resultUnits": "%", "quantitativeResult": 9.4}
{"compound": "CN(C)C(=O)CN(C)C(=O)CCl", "recordedMetric": "viability at 48 h, 10 µM", "resultUnits": "%", "quantitativeResult": 89.7}

Please turn your attention to the following entry.
Data request: Value lookup for viability at 48 h, 10 µM; key = CC(C)(C)NC(=O)CNC(=O)CCl
Data returned: 101

----------
# protocolDetails: in vitro
# Set-up: species or system CCD841, HEK293
# assayContext: human, hb2 cells, read-out: HB-2 Cells Viability (%)
Exercise: state measured viability at 48 h, 10 µM for each of the compounds provided.
Give bare numbers, in %.

{"structureSmilesString": "C#Cc1cccc(NC(=O)CCl)c1", "resultUnits": "%", "viability at 48 h, 10 µM": 90.9}
{"structureSmilesString": "Cc1ccc([N+](=O)[O-])c(NC(=O)CCl)c1C", "resultUnits": "%", "viability at 48 h, 10 µM": 91.5}

Please turn your attention to the following entry.
Data request: Value lookup for viability at 48 h, 10 µM; key = Cc1ccc(NC(=O)NC(=O)CCl)cc1C
Data returned: 48.8

----------
# protocolDetails: in vitro
# Set-up: species or system CCD841, HEK293
# assayContext: human, hb2 cells, read-out: HB-2 Cells Viability (%)
recordedMetric: viability at 48 h, 10 µM (%)
One number for each entry, in %.

Record excerpt, results attached:
{"compound": "O=C(CCl)NC(=O)C1COc2ccccc2O1 (stereo not drawn)", "viability at 48 h, 10 µM, %": 103}
{"compound": "C=CC(=O)N(C)CC1CCn2ccnc2C1 (stereo not drawn)", "viability at 48 h, 10 µM, %": 97.7}
{"compound": "COc1ccc(C(=O)NNC(=O)CCl)cc1", "viability at 48 h, 10 µM, %": 91.7}
{"compound": "CN(C(=O)CCl)C1CCS(=O)(=O)C1 (stereo not drawn)", "viability at 48 h, 10 µM, %": 56.9}
{"compound": "C=CC(=O)N1CCC(C(=O)N2CCN(C(C)=O)CC2)CC1", "viability at 48 h, 10 µM, %": 98.3}

Consider the following items and state reported viability at 48 h, 10 µM for each.
1. O=C(CCl)NCC1CCCO1 (stereo not drawn)
2. CN(C)c1ccc(NC(=O)CCl)cc1.Cl
3. Cc1cc(N2CCCC2)ccc1NC(=O)CCl
4. O=C(CCl)N1CCN(S(=O)(=O)c2c(F)cccc2F)CC1
5. O=C(CCl)Nc1ccc2[nH]c(C(F)(F)F)nc2c1

Data returned:
1. 91.4
2. 105
3. 47.9
4. 9.5
5. 7.4

Consider the following items and state reported viability at 48 h, 10 µM for each.
1. COc1ccc(C2CCCN2C(=O)CCl)cc1 (stereo not drawn)
2. CC1CCN(c2ccc(NC(=O)CCl)cc2)CC1.Cl
3. O=C(CCl)NNC(=O)c1ccccc1Cl
4. CN(Cc1ccsc1)C(=O)CCl

Data returned:
1. 12
2. 21.9
3. 91.9
4. 49.6

Consider the following items and state reported viability at 48 h, 10 µM for each.
1. Cc1ccc(C)c(NC(=O)CCl)c1
2. C=CC(=O)NC1(C2CC2)CCOCC1

Data returned:
59.4
96.2

Consider the following items and state reported viability at 48 h, 10 µM for each.
1. CN(C(=O)CCl)C(C)(C)C#N
2. C=CC(=O)NCC1=CS(=O)(=O)c2ccccc21
3. COc1ccccc1NC(=O)CCl

Data returned:
[95.9, 102, 71]

----------
# protocolDetails: in vitro
# Set-up: species or system HB2, HEK293
# assayContext: human, ccd841 cells
Doc: threshold 80% (exclusive). Items with viability at 48 h, 10 µM beneath it return criterion met; others return criterion not met.

Sample answers from the record:
{"compound": "CN(C(=O)CCl)C1=CCCC1", "className": "criterion not met"}
{"compound": "CCc1ccccc1NC(=O)CCl", "className": "criterion met"}
{"compound": "CC(C)(C)N(Cc1cccc(F)c1)C(=O)CCl", "className": "criterion met"}
{"compound": "O=C(Nc1ccccc1)C1CCN(C(=O)CCl)CC1", "className": "criterion met"}
{"compound": "C=CC(=O)N1CC(NC(=O)C(F)(F)F)CCC1C(F)(F)F (stereo not shown)", "className": "criterion not met"}

Data request: In the record for COc1ccccc1N1CCN(C(=O)CCl)CC1.Cl , is viability at 48 h, 10 µM less than 80%?
Data returned: criterion met

Data request: In the record for CC(=O)c1sc2nc(C)cc(C)c2c1NC(=O)CCl , is viability at 48 h, 10 µM less than 80%?
Data returned: criterion not met

Data request: In the record for O=C(CCl)NCC1CCCO1 (stereo not shown) , is viability at 48 h, 10 µM less than 80%?
Data returned: criterion not met

Data request: In the record for C=CC(=O)N1CCCc2[nH]c3ccc(F)cc3c2C1 , is viability at 48 h, 10 µM less than 80%?
Data returned: criterion not met

Data request: In the record for CC(c1ccc(F)cc1)N(C)C(=O)CCl (stereo not shown) , is viability at 48 h, 10 µM less than 80%?
Data returned: criterion met

Data request: In the record for C=CC(=O)N1CCCn2c(cc3ccccc32)C1 , is viability at 48 h, 10 µM less than 80%?
Data returned: criterion not met

Data request: In the record for C=CC(=O)N1CCC(c2nc3cccc(C)c3o2)CC1 , is viability at 48 h, 10 µM less than 80%?
Data returned: criterion not met

Data request: In the record for Cc1cccc(N2CCN(C(=O)CCl)CC2)c1C , is viability at 48 h, 10 µM less than 80%?
Data returned: criterion met

Data request: In the record for Cc1cccc(N2CCN(C(=O)CCl)CC2)c1.Cl , is viability at 48 h, 10 µM less than 80%?
Data returned: criterion met

----------
Exercise: state measured viability at 48 h, 10 µM for each of the molecules provided.
# protocolDetails: in vitro
# Set-up: species or system HB2, CCD841
# assayContext: human, hek293 cells
Answers are plain numbers, in %.

Record excerpt, results attached:
{"molecule": "O=C(CCl)N(c1ccccc1)C1C=CS(=O)(=O)C1 (stereo not drawn) [PCM-0102372]", "viability at 48 h, 10 µM [%]": 11.2}
{"molecule": "O=C(CCl)NNC(=O)C1CCC1 [PCM-0103061]", "viability at 48 h, 10 µM [%]": 2.3}
{"molecule": "C=CC(=O)N1CCn2c(cc3ccc(Cl)cc32)C1 [PCM-0102503]", "viability at 48 h, 10 µM [%]": 74.4}
{"molecule": "CC1CN(c2ccc(NC(=O)CCl)cc2)CC(C)O1 (stereo not drawn) [PCM-0102750]", "viability at 48 h, 10 µM [%]": 52.7}
{"molecule": "Cc1oc(NC(=O)CCl)c(C#N)c1C [PCM-0102337]", "viability at 48 h, 10 µM [%]": 82.9}
{"molecule": "O=C(CCl)Nc1cc(C(=O)O)ccc1Cl [PCM-0102590]", "viability at 48 h, 10 µM [%]": 110}
{"molecule": "C=CC(=O)N1C(C)CNCC1C.O=C(O)C(F)(F)F (stereo not drawn) [PCM-0102447]", "viability at 48 h, 10 µM [%]": 105}
{"molecule": "O=C(CCl)Nc1cccc(N2CCCC2=O)c1 [PCM-0102179]", "viability at 48 h, 10 µM [%]": 1.8}

Consider the following items and state reported viability at 48 h, 10 µM for each.
1. C=CC(=O)NC1CCCN(C(=O)OC)C1 (stereo not drawn) [PCM-0102526]
2. COC(=O)c1c(NC(=O)CCl)sc(C)c1C [PCM-0102322]
3. O=C(CCl)Nc1cccc(C(=O)N2CCSCC2)c1 [PCM-0103072]
4. O=C(CCl)N1CCN(C(=O)C2COc3ccccc3O2)CC1 (stereo not drawn) [PCM-0102996]

Data returned:
1. 90.7
2. 33.3
3. 7.8
4. 5.8

----------
# protocolDetails: in vitro
# Set-up: species or system HB2, CCD841
# assayContext: human, hek293 cells
Doc: threshold 70% (exclusive). Items with viability at 48 h, 10 µM beneath it return Satisfied; others return Not satisfied.

Sample answers from the record:
{"compound": "C=CC(=O)N1CCCC(c2nc3c(s2)CCCC3)C1 (centres unmarked)", "className": "Not satisfied"}
{"compound": "CC(C)(C)OC(=O)N1CCCC(CNC(=O)CCl)C1 (centres unmarked)", "className": "Not satisfied"}
{"compound": "O=C(CCl)N1CCCCCC1", "className": "Not satisfied"}
{"compound": "COc1ccc(N2CCN(C(=O)CCl)CC2)cc1", "className": "Satisfied"}
{"compound": "O=C(CCl)NC(=O)NCC(F)(F)F", "className": "Not satisfied"}

Data request: In the record for CCOC(=O)N1CCC(NC(=O)CCl)CC1 , is viability at 48 h, 10 µM less than 70%?
Data returned: Not satisfied

Data request: In the record for C=CC(=O)Nc1sc2c(c1C#N)CCCC2 , is viability at 48 h, 10 µM less than 70%?
Data returned: Not satisfied

These measurements were taken from paper PMC6556873.
